Recorded values, source PubChem BioAssay AID1963869.

Tested on: KRAS patient-derived spheroids with HUVEC/MSC, viability
Experiment: Anticancer human tumor 323965-272-R-J2-PDC patient-derived pancreatic carcinoma cell line growth inhibition [KRAS2]
Settings: second compound 10 µM; first compound 0.00316 µM; stronger effect = lower value

- compound: "Cn1ncnc1[C@H]1c2n[nH]c(=O)c3cc(F)cc(c23)N[C@@H]1c1ccc(F)cc1 + CC1OCC2(CCN(c3cnc(Sc4ccnc(N)c4Cl)c(N)n3)CC2)C1N"
  assayed system: "KRAS patient-derived spheroids with HUVEC/MSC, viability"
  viability, T/C: "20.8%"
- compound: "CCN1CCN(Cc2ccc(Nc3ncc(F)c(-c4cc(F)c5nc(C)n(C(C)C)c5c4)n3)nc2)CC1 + C=CC(=O)N1CCN(c2nc(=O)n(-c3c(C)ccnc3C(C)C)c3nc(-c4c(O)cccc4F)c(F)cc23)C(C)C1"
  assayed system: "KRAS patient-derived spheroids with HUVEC/MSC, viability"
  viability, T/C: "38.6%"
- compound: "CC(C)n1nc(-c2ccc3oc(N)nc3c2)c2c(N)ncnc21 + C=CC(=O)N1CCN(c2nc(=O)n(-c3c(C)ccnc3C(C)C)c3nc(-c4c(O)cccc4F)c(F)cc23)C(C)C1"
  assayed system: "KRAS patient-derived spheroids with HUVEC/MSC, viability"
  viability, T/C: "24.1%"
- compound: "CC(C)n1nc(-c2ccc3oc(N)nc3c2)c2c(N)ncnc21 + CC1OCC2(CCN(c3cnc(Sc4ccnc(N)c4Cl)c(N)n3)CC2)C1N"
  assayed system: "KRAS patient-derived spheroids with HUVEC/MSC, viability"
  viability, T/C: "15.6%"
- compound: "CN(C)C/C=C/C(=O)Nc1cc2c(Nc3ccc(F)c(Cl)c3)ncnc2cc1O[C@H]1CCOC1 + C=CC(=O)N1CCN(c2nc(=O)n(-c3c(C)ccnc3C(C)C)c3nc(-c4c(O)cccc4F)c(F)cc23)C(C)C1"
  assayed system: "KRAS patient-derived spheroids with HUVEC/MSC, viability"
  viability, T/C: "44.6%"

###

System: KRAS patient-derived spheroids with HUVEC/MSC, viability
Test: Anticancer human tumor 323965-272-R-J2-PDC cell line growth inhibition [KRAS2];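 also: spheroids exposed to agents for 7 days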
Conditions: curve of first compound; second compound 0.316 µM
Entries and their IC50 values follow.
measure name: IC50

- compound: "CC(=O)OC12COC1CC(O)C1(C)C(=O)C(O)C3=C(C)C(OC(=O)C(O)C(NC(=O)OC(C)(C)C)c4ccccc4)CC(O)(C(OC(=O)c4ccccc4)C21)C3(C)C (centres undefined) + CNCc1ccccc1-c1csc(C(C)Nc2nc(C)nc3cc(OC)c(OC)cc23)c1"
  assayed system: "KRAS patient-derived spheroids with HUVEC/MSC, viability"
  measure name: "IC50"
  recorded value: "< 10 nM"
- compound: "CC1(C)CCC(CN2CCN(c3ccc(C(=O)NS(=O)(=O)c4ccc(NCC5CCOCC5)c([N+](=O)[O-])c4)c(Oc4cnc5[nH]ccc5c4)c3)CC2)=C(c2ccc(Cl)cc2)C1 + C=CC(=O)N1CCN(c2nc(=O)n(-c3c(C)ccnc3C(C)C)c3nc(-c4c(O)cccc4F)c(F)cc23)C(C)C1"
  assayed system: "KRAS patient-derived spheroids with HUVEC/MSC, viability"
  measure name: "IC50"
  recorded value: "1320 nM"
- compound: "CC(=O)OC12COC1CC(O)C1(C)C(=O)C(O)C3=C(C)C(OC(=O)C(O)C(NC(=O)OC(C)(C)C)c4ccccc4)CC(O)(C(OC(=O)c4ccccc4)C21)C3(C)C (centres undefined) + C=CC(=O)N1CCN(c2nc(=O)n(-c3c(C)ccnc3C(C)C)c3nc(-c4c(O)cccc4F)c(F)cc23)C(C)C1"
  assayed system: "KRAS patient-derived spheroids with HUVEC/MSC, viability"
  measure name: "IC50"
  recorded value: "< 10 nM"
- compound: "Cn1ncnc1[C@H]1c2n[nH]c(=O)c3cc(F)cc(c23)N[C@@H]1c1ccc(F)cc1 + CC1OCC2(CCN(c3cnc(Sc4ccnc(N)c4Cl)c(N)n3)CC2)C1N"
  assayed system: "KRAS patient-derived spheroids with HUVEC/MSC, viability"
  measure name: "IC50"
  recorded value: "35.9 nM"

###

Entries and their viability, T/C values follow.
Test system: KRAS patient-derived spheroids with HUVEC/MSC, viability
Assay: Anticancer human tumor 323965-272-R-J2-PDC cell line growth inhibition [KRAS2];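 also: spheroids exposed to agents for 7 days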;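 as to viability, T/C: 100% = DMSO vehicle control viability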
Settings: second compound 0.316 µM; first compound 1 µM; stronger effect = lower value

- compound: "CCN1CCN(Cc2ccc(Nc3ncc(F)c(-c4cc(F)c5nc(C)n(C(C)C)c5c4)n3)nc2)CC1 + C=CC(=O)N1CCN(c2nc(OCC3CCCN3C)nc3c2CCN(c2cccc4cccc(C)c24)C3)CC1CC#N"
  viability, T/C, %: 38.8
- compound: "CC1OCC2(CCN(c3cnc(Sc4ccnc(N)c4Cl)c(N)n3)CC2)C1N (stereo not given) + COc1cc2nc(C)nc(NC(C)c3cc(N)cc(C(F)(F)F)c3)c2cc1OC1CCOC1"
  viability, T/C, %: 27.5
- compound: "Cn1nccc1Nc1nccc(-c2cc3c(s2)C(C)(C)N(CCN2CCOCC2)C3=O)n1 + CNCc1ccccc1-c1csc(C(C)Nc2nc(C)nc3cc(OC)c(OC)cc23)c1"
  viability, T/C, %: 52.2
- compound: "O=C(c1cc(Cc2n[nH]c(=O)c3ccccc23)ccc1F)N1CCN(C(=O)C2CC2)CC1 + C=CC(=O)N1CCN(c2nc(OCC3CCCN3C)nc3c2CCN(c2cccc4cccc(C)c24)C3)CC1CC#N"
  viability, T/C, %: 58
- compound: "COc1cc(Nc2ncc3c(n2)-c2ccc(Cl)cc2C(c2c(F)cccc2OC)=NC3)ccc1C(=O)O + CNCc1ccccc1-c1csc(C(C)Nc2nc(C)nc3cc(OC)c(OC)cc23)c1"
  viability, T/C, %: 35.6
- compound: "CC1(C)CCC(CN2CCN(c3ccc(C(=O)NS(=O)(=O)c4ccc(NCC5CCOCC5)c([N+](=O)[O-])c4)c(Oc4cnc5[nH]ccc5c4)c3)CC2)=C(c2ccc(Cl)cc2)C1 + COc1cc2nc(C)nc(NC(C)c3cc(N)cc(C(F)(F)F)c3)c2cc1OC1CCOC1"
  viability, T/C, %: 71.5
- compound: "COc1cc2nccc(Oc3ccc(NC(=O)C4(C(=O)Nc5ccc(F)cc5)CC4)cc3)c2cc1OC + CNCc1ccccc1-c1csc(C(C)Nc2nc(C)nc3cc(OC)c(OC)cc23)c1"
  viability, T/C, %: 93.2
- compound: "CC(C)NCC(C(=O)N1CCN(c2ncnc3c2C(C)CC3O)CC1)c1ccc(Cl)cc1 (stereo not given) + CC1OCC2(CCN(c3cnc(Sc4ccnc(N)c4Cl)c(N)n3)CC2)C1N"
  viability, T/C, %: 29
- compound: "COc1cc2nccc(Oc3ccc(NC(=O)C4(C(=O)Nc5ccc(F)cc5)CC4)cc3)c2cc1OC + C=CC(=O)N1CCN(c2nc(=O)n(-c3c(C)ccnc3C(C)C)c3nc(-c4c(O)cccc4F)c(F)cc23)C(C)C1"
  viability, T/C, %: 61.8
- compound: "COc1cc(Nc2ncc3c(n2)-c2ccc(Cl)cc2C(c2c(F)cccc2OC)=NC3)ccc1C(=O)O + C=CC(=O)N1CCN(c2nc(OCC3CCCN3C)nc3c2CCN(c2cccc4cccc(C)c24)C3)CC1CC#N"
  viability, T/C, %: 27.8
- compound: "CC1OCC2(CCN(c3cnc(Sc4ccnc(N)c4Cl)c(N)n3)CC2)C1N (stereo not given) + CNCc1ccccc1-c1csc(C(C)Nc2nc(C)nc3cc(OC)c(OC)cc23)c1"
  viability, T/C, %: 41.6
- compound: "CC(C)NCC(C(=O)N1CCN(c2ncnc3c2C(C)CC3O)CC1)c1ccc(Cl)cc1 (stereo not given) + CNCc1ccccc1-c1csc(C(C)Nc2nc(C)nc3cc(OC)c(OC)cc23)c1"
  viability, T/C, %: 48.1
- compound: "COC(=O)c1ccc2c(C(=Nc3ccc(N(C)C(=O)CN4CCN(C)CC4)cc3)c3ccccc3)c(O)[nH]c2c1 + CC1OCC2(CCN(c3cnc(Sc4ccnc(N)c4Cl)c(N)n3)CC2)C1N"
  viability, T/C, %: 65.2
- compound: "COC(=O)c1ccc2c(C(=Nc3ccc(N(C)C(=O)CN4CCN(C)CC4)cc3)c3ccccc3)c(O)[nH]c2c1 + CNCc1ccccc1-c1csc(C(C)Nc2nc(C)nc3cc(OC)c(OC)cc23)c1"
  viability, T/C, %: 98.2
- compound: "CC1COCCN1c1cc(-c2ccnn2C)c2ccnc(-c3ccn[nH]3)c2n1 (stereo not given) + CNCc1ccccc1-c1csc(C(C)Nc2nc(C)nc3cc(OC)c(OC)cc23)c1"
  viability, T/C, %: 16.1
- compound: "CCNC(=O)CC1N=C(c2ccc(Cl)cc2)c2cc(OC)ccc2-n2c(C)nnc21 (stereo not given) + C=CC(=O)N1CCN(c2nc(=O)n(-c3c(C)ccnc3C(C)C)c3nc(-c4c(O)cccc4F)c(F)cc23)C(C)C1"
  viability, T/C, %: 31
- compound: "CC1(C)CCC(CN2CCN(c3ccc(C(=O)NS(=O)(=O)c4ccc(NCC5CCOCC5)c([N+](=O)[O-])c4)c(Oc4cnc5[nH]ccc5c4)c3)CC2)=C(c2ccc(Cl)cc2)C1 + C=CC(=O)N1CCN(c2nc(=O)n(-c3c(C)ccnc3C(C)C)c3nc(-c4c(O)cccc4F)c(F)cc23)C(C)C1"
  viability, T/C, %: 60.4
- compound: "COc1cc(Nc2ncc3c(n2)-c2ccc(Cl)cc2C(c2c(F)cccc2OC)=NC3)ccc1C(=O)O + C=CC(=O)N1CCN(c2nc(=O)n(-c3c(C)ccnc3C(C)C)c3nc(-c4c(O)cccc4F)c(F)cc23)C(C)C1"
  viability, T/C, %: 30.1
- compound: "CC1(C)CCC(CN2CCN(c3ccc(C(=O)NS(=O)(=O)c4ccc(NCC5CCOCC5)c([N+](=O)[O-])c4)c(Oc4cnc5[nH]ccc5c4)c3)CC2)=C(c2ccc(Cl)cc2)C1 + CNCc1ccccc1-c1csc(C(C)Nc2nc(C)nc3cc(OC)c(OC)cc23)c1"
  viability, T/C, %: 81.2
- compound: "COC(=O)c1ccc2c(C(=Nc3ccc(N(C)C(=O)CN4CCN(C)CC4)cc3)c3ccccc3)c(O)[nH]c2c1 + C=CC(=O)N1CCN(c2nc(OCC3CCCN3C)nc3c2CCN(c2cccc4cccc(C)c24)C3)CC1CC#N"
  viability, T/C, %: 38.3
